# measurementDescription: Clearance in dog
# Assay type: ADME, organism-based, Canis lupus familiaris
# appliedConditions: in vivo
metric: clearance (mL/min/kg)
One number for each entry, in mL/min/kg.

smilesNotation	unitName	clearance
CC(=O)Nc1nc(C)c(-c2cc3c(c(NS(C)(=O)=O)c2)C(=O)N([C@@H](C)C2CC2)C3)s1	mL/min/kg	6.2

# ---- query compound ----
Prompt line: Using the record for `CNS(=O)(=O)c1cc(-c2sc(NC(C)=O)nc2C)cc2c1C(=O)N([C@@H](C)C1CC1)C2` , report its clearance.
Response line: 2.1

====

# measurementDescription: Intrinsic clearance in dog hepatocytes assessed as per million cells
# Format: ADME, cell-based, Canis lupus familiaris, Hepatocyte
# appliedConditions: read-out: CLH
Consider the following compounds; for each one, report its hepatocyte CLint.
One number for each entry, in µL/min/1e6 cells.

Worked examples, 2 compounds total:
smilesNotation	unitName	hepatocyte CLint
CC(=O)Nc1nc(C)c(-c2cc3c(c(S(C)(=O)=O)c2)C(=O)N([C@@H](C)C2CC2)C3)s1	µL/min/1e6 cells	1
CNS(=O)(=O)c1cc(-c2sc(NC(C)=O)nc2C)cc2c1C(=O)N([C@@H](C)C1CC1)C2	µL/min/1e6 cells	2.1

Prompt line: Give the measured hepatocyte CLint of `CC(=O)Nc1nc(C)c(-c2cc3c(c(NS(C)(=O)=O)c2)C(=O)N([C@@H](C)C2CC2)C3)s1` .
Response line: 7.6

====

# measurementDescription: Intrinsic clearance in rat hepatocytes assessed as per million cells
# Type: ADME, cell-based, Hepatocyte
# appliedConditions: read-out: CLH
metric: hepatocyte CLint

Working through the 3 compounds below one at a time, give hepatocyte CLint for each.
1. CC(=O)Nc1nc(C)c(-c2cc3c(c(S(=O)(=O)CCCO)c2)C(=O)N([C@@H](C)C2CC2)C3)s1
2. CC(=O)Nc1nc(C)c(-c2cc3c(c(S(C)(=O)=O)c2)C(=O)N([C@@H](C)C2CC2)C3)s1
3. CC(=O)Nc1nc(C)c(-c2cc3c(c(S(N)(=O)=O)c2)C(=O)N([C@@H](C)C2CC2)C3)s1

Response line:
1. 6 µL/min/1e6 cells
2. 1.7 to 2 µL/min/1e6 cells
3. < 2 µL/min/1e6 cells

Prompt line: Looking for the measured hepatocyte CLint of `CNS(=O)(=O)c1cc(-c2sc(NC(C)=O)nc2C)cc2c1C(=O)N([C@@H](C)C1CC1)C2` , can you help?
Response line: 4.5 to 5 µL/min/1e6 cells

====

# measurementDescription: Volume of distribution at steady state in dog
# Format: ADME, organism-based, Canis lupus familiaris
# appliedConditions: in vivo, read-out: Vdss
Field: Vd. Provide a value for each of the compounds that follow.
Numbers only, in L/kg.

# count of solved cases: 2
smilesNotation	Vd [L/kg]
CC(=O)Nc1nc(C)c(-c2cc3c(c(S(C)(=O)=O)c2)C(=O)N([C@@H](C)C2CC2)C3)s1	1.1
CC(=O)Nc1nc(C)c(-c2cc3c(c(NS(C)(=O)=O)c2)C(=O)N([C@@H](C)C2CC2)C3)s1	0.7

Prompt line: Look up Vd for this compound: `CNS(=O)(=O)c1cc(-c2sc(NC(C)=O)nc2C)cc2c1C(=O)N([C@@H](C)C1CC1)C2`
Response line: 2.2

====

# measurementDescription: Half life in rat
# Type: ADME, organism-based
# appliedConditions: in vivo
metric: half-life (min)
Give bare numbers, in min.

Some entries whose results are on file:
smilesNotation	half-life [min]
CC(=O)Nc1nc(C)c(-c2cc3c(c(NS(C)(=O)=O)c2)C(=O)N([C@@H](C)C2CC2)C3)s1	402
CNS(=O)(=O)c1cc(-c2sc(NC(C)=O)nc2C)cc2c1C(=O)N([C@@H](C)C1CC1)C2	156

// switching to the query molecule
Prompt line: Sample `CC(=O)Nc1nc(C)c(-c2cc3c(c(S(C)(=O)=O)c2)C(=O)N([C@@H](C)C2CC2)C3)s1` — what was its half-life?
Response line: 138

====

# measurementDescription: Intrinsic clearance in human hepatocytes assessed as per million cells
# Format: ADME, cell-based, Hepatocyte
# appliedConditions: read-out: CLH
For each of the compounds below, state its hepatocyte CLint.
Numbers only, in µL/min/1e6 cells.

smilesNotation	metric	resultValue
CC(=O)Nc1nc(C)c(-c2cc3c(c(S(C)(=O)=O)c2)C(=O)N([C@@H](C)C2CC2)C3)s1	hepatocyte CLint	0.4

Dear reader, for each entry below, please note its hepatocyte CLint.
1. CNS(=O)(=O)c1cc(-c2sc(NC(C)=O)nc2C)cc2c1C(=O)N([C@@H](C)C1CC1)C2
2. CC(=O)Nc1nc(C)c(-c2cc3c(c(NS(C)(=O)=O)c2)C(=O)N([C@@H](C)C2CC2)C3)s1

Response line:
1: 0.5; 2: 3.4

====

Would you mind telling me the reported bioavailability of each entry?
# measurementDescription: Oral bioavailability in rat
# Type: ADME, organism-based
# appliedConditions: in vivo
Give bare numbers, in %.

Reference set (2 entries):
smilesNotation	resultValue
CNS(=O)(=O)c1cc(-c2sc(NC(C)=O)nc2C)cc2c1C(=O)N([C@@H](C)C1CC1)C2	30
CC(=O)Nc1nc(C)c(-c2cc3c(c(S(C)(=O)=O)c2)C(=O)N([C@@H](C)C2CC2)C3)s1	51

// moving on: another record for bioavailability
Prompt line: What does the data say about its bioavailability? Entry: `CC(=O)Nc1nc(C)c(-c2cc3c(c(NS(C)(=O)=O)c2)C(=O)N([C@@H](C)C2CC2)C3)s1`
Response line: 49

====

# measurementDescription: Half life in dog
# Type: ADME, organism-based, Canis lupus familiaris
# appliedConditions: in vivo
Hi there, I'd appreciate the recorded half-life for every entry that follows.
One number for each entry, in h.

smilesNotation	half-life [h]
CNS(=O)(=O)c1cc(-c2sc(NC(C)=O)nc2C)cc2c1C(=O)N([C@@H](C)C1CC1)C2	12
CC(=O)Nc1nc(C)c(-c2cc3c(c(S(C)(=O)=O)c2)C(=O)N([C@@H](C)C2CC2)C3)s1	3.9

Below: the item to evaluate.
Prompt line: Reported half-life, compound `CC(=O)Nc1nc(C)c(-c2cc3c(c(NS(C)(=O)=O)c2)C(=O)N([C@@H](C)C2CC2)C3)s1` : ____
Response line: 1.3

====

# measurementDescription: Intrinsic clearance in rat hepatocytes assessed as per million cells
# Assay type: ADME, cell-based, Hepatocyte
# appliedConditions: read-out: CLH
Returns one of Yes or No; Yes when hepatocyte CLint is >= 10 µL/min/1e6 cells.

// below: answered compounds
smilesNotation	classLabel
COCCNS(=O)(=O)c1cc(-c2sc(NC(C)=O)nc2C)cc2c1C(=O)N([C@@H](C)C1CC1)C2	Yes
CNC(=O)c1nc(-c2cc(C)c3c(c2)CN([C@@H](C)C2CC2)C3=O)cnc1N	No
CC(=O)Nc1nc(C)c(-c2cc(Cl)c3c(c2)CN([C@H](C)C2CC2)C3=O)s1	No
CC(=O)Nc1nc(C)c(-c2cc(C)c3c(c2)CN([C@@H](C)C2CC2)C3=O)s1	Yes
CC(=O)Nc1nc(C)c(-c2cc(Cl)c3c(c2)CN([C@@H](C)C2CC2)C3=O)s1	No
COCCS(=O)(=O)Nc1cc(-c2sc(NC(C)=O)nc2C)cc2c1C(=O)N([C@@H](C)C1CC1)C2	Yes
C[C@@H](C1CC1)N1Cc2cc(-c3cnc(N)nc3)cc(Cl)c2C1=O	No
CC(=O)Nc1ncc(-c2cc(Cl)c3c(c2)CN([C@@H](C)C2CC2)C3=O)s1	No
Cc1cc(-c2cnc3[nH]ccc3n2)cc2c1C(=O)N([C@@H](C)C1CC1)C2	Yes

Prompt line: Does hepatocyte CLint meet or surpass 10 µL/min/1e6 cells for `Cc1cc(-c2nccnc2N)cc2c1C(=O)N([C@@H](C)C1CC1)C2` ?
Response line: Yes

====

# measurementDescription: Lipophilicity, log D of the compound at pH 7.4
# Type: physicochemical
# appliedConditions: buffer
Cut-off 3 on logD: below means Satisfied, at or above means Not satisfied.

Consider the worked cases shown below.
smilesNotation	classLabel
CC(=O)Nc1nc(C)c(-c2cc3c(c(NS(C)(=O)=O)c2)C(=O)N([C@@H](C)C2CC2)C3)s1	Not satisfied
COCCNS(=O)(=O)c1cc(-c2sc(NC(C)=O)nc2C)cc2c1C(=O)N([C@@H](C)C1CC1)C2	Satisfied
CC(=O)Nc1nc(C)c(-c2cc3c(c(S(N)(=O)=O)c2)C(=O)N([C@@H](C)C2CC2)C3)s1	Satisfied
CC(=O)Nc1nc(C)c(-c2cc(Cl)c3c(c2)CN([C@H](C)C2CC2)C3=O)s1	Not satisfied
CC(=O)Nc1ncc(-c2cc(Cl)c3c(c2)CN([C@@H](C)C2CC2)C3=O)s1	Not satisfied
CC(=O)Nc1nc(C)c(-c2cc(C)c3c(c2)CN([C@@H](C)C2CC2)C3=O)s1	Not satisfied

Prompt line: # check: logD < 3 for `CNC(=O)c1nc(-c2cc(C)c3c(c2)CN([C@@H](C)C2CC2)C3=O)cnc1N`
Response line: Not satisfied

Prompt line: Now the same for `CC(=O)Nc1nc(C)c(-c2cc3c(c(S(C)(=O)=O)c2)C(=O)N([C@@H](C)C2CC2)C3)s1`
Response line: Satisfied

Prompt line: And what about the compound `COCCS(=O)(=O)Nc1cc(-c2sc(NC(C)=O)nc2C)cc2c1C(=O)N([C@@H](C)C1CC1)C2` ?
Response line: Not satisfied

Prompt line: And what about the compound `C[C@@H](C1CC1)N1Cc2cc(-c3cnc(N)nc3)cc(Cl)c2C1=O` ?
Response line: Satisfied

Prompt line: Try the compound `CC(=O)Nc1nc(C)c(-c2cc3c(c(S(=O)(=O)CCCO)c2)C(=O)N([C@@H](C)C2CC2)C3)s1`
Response line: Satisfied

Prompt line: Also need `CC(=O)Nc1nc(C)c(-c2cc(Cl)c3c(c2)CN([C@@H](C)C2CC2)C3=O)s1` , thanks.
Response line: Not satisfied

Prompt line: Field entry: `Cc1cc(-c2cnc3[nH]ccc3n2)cc2c1C(=O)N([C@@H](C)C1CC1)C2`
Response line: Not satisfied

Prompt line: Another compound to check: `Cc1cc(-c2nccnc2N)cc2c1C(=O)N([C@@H](C)C1CC1)C2`
Response line: Satisfied
